Each recorded value in this set is attributed to patent US11001838B2.

System: E. coli DH1
testMethodNotes: Isopentenol production in E. coli via IPP-bypass MVA pathway (GC-FID)
Format: cell-based, Escherichia coli
conditionDescription: 48 hr
Exercise: state measured 48 hr Titer (isopentenol) for each of the molecules provided.

Saccharomyces cerevisiae diphosphomevalonate decarboxylase (PMDsc, SEQ ID NO: 1) variant S186C (Saccharomyces cerevisiae S288C; S186C) (protein, His tag; made in house; host or cells: E. coli Rosetta (DE3)) MTVYTASVTAPVNIATLKYWGKRDTKLNLPTNSSISVTLSQDDLRTLTSAATAPEFERDTLWLNGEPHSIDNERTQNCLRDLRQLRKEMESKDASLPTLSQWKLHIVSENNFPTAAGLASSAAGFAALVSAIAKLYQLPQSTSEISRIARKGSGSACRSLFGGYVAWEMGKAEDGHDSMAVQIADCSDWPQMKACVLVVSDIKKDVSSTQGMQLTVATSELFKERIEHVVPKRFEVMRKAIVEKDFATFAKETMMDSNSFHATCLDSFPPIFYMNDTSKRIISWCHTINQFYGETIVAYTFDAGPNAVLYYLAENESKLFAFIYKLFGSVPGWDKKFTTEQLEAFNHQFESSNFTARELDLELQKDVARVILTQVGSGPQETNESLIDAKTGLPKE	596 (110) mg/L
Saccharomyces cerevisiae diphosphomevalonate decarboxylase (PMDsc, SEQ ID NO: 1) variant R147K (Saccharomyces cerevisiae S288C; R147K) (protein, His tag; made in house; host or cells: E. coli Rosetta (DE3)) MTVYTASVTAPVNIATLKYWGKRDTKLNLPTNSSISVTLSQDDLRTLTSAATAPEFERDTLWLNGEPHSIDNERTQNCLRDLRQLRKEMESKDASLPTLSQWKLHIVSENNFPTAAGLASSAAGFAALVSAIAKLYQLPQSTSEISKIARKGSGSACRSLFGGYVAWEMGKAEDGHDSMAVQIADSSDWPQMKACVLVVSDIKKDVSSTQGMQLTVATSELFKERIEHVVPKRFEVMRKAIVEKDFATFAKETMMDSNSFHATCLDSFPPIFYMNDTSKRIISWCHTINQFYGETIVAYTFDAGPNAVLYYLAENESKLFAFIYKLFGSVPGWDKKFTTEQLEAFNHQFESSNFTARELDLELQKDVARVILTQVGSGPQETNESLIDAKTGLPKE	793 (22) mg/L
Saccharomyces cerevisiae diphosphomevalonate decarboxylase (PMDsc, SEQ ID NO: 1) variant M212Q (Saccharomyces cerevisiae S288C; M212Q) (protein, His tag; made in house; host or cells: E. coli Rosetta (DE3)) MTVYTASVTAPVNIATLKYWGKRDTKLNLPTNSSISVTLSQDDLRTLTSAATAPEFERDTLWLNGEPHSIDNERTQNCLRDLRQLRKEMESKDASLPTLSQWKLHIVSENNFPTAAGLASSAAGFAALVSAIAKLYQLPQSTSEISRIARKGSGSACRSLFGGYVAWEMGKAEDGHDSMAVQIADSSDWPQMKACVLVVSDIKKDVSSTQGQQLTVATSELFKERIEHVVPKRFEVMRKAIVEKDFATFAKETMMDSNSFHATCLDSFPPIFYMNDTSKRIISWCHTINQFYGETIVAYTFDAGPNAVLYYLAENESKLFAFIYKLFGSVPGWDKKFTTEQLEAFNHQFESSNFTARELDLELQKDVARVILTQVGSGPQETNESLIDAKTGLPKE	601 (76) mg/L

# context switch: different molecule, same 48 hr Titer (isopentenol)
Prompt: Could you tell me which 48 hr Titer (isopentenol) is on file for Saccharomyces cerevisiae diphosphomevalonate decarboxylase (PMDsc, SEQ ID NO: 1) variant R74H (Saccharomyces cerevisiae S288C; R74H) (protein, His tag; made in house; host or cells: E. coli Rosetta (DE3)) MTVYTASVTAPVNIATLKYWGKRDTKLNLPTNSSISVTLSQDDLRTLTSAATAPEFERDTLWLNGEPHSIDNEHTQNCLRDLRQLRKEMESKDASLPTLSQWKLHIVSENNFPTAAGLASSAAGFAALVSAIAKLYQLPQSTSEISRIARKGSGSACRSLFGGYVAWEMGKAEDGHDSMAVQIADSSDWPQMKACVLVVSDIKKDVSSTQGMQLTVATSELFKERIEHVVPKRFEVMRKAIVEKDFATFAKETMMDSNSFHATCLDSFPPIFYMNDTSKRIISWCHTINQFYGETIVAYTFDAGPNAVLYYLAENESKLFAFIYKLFGSVPGWDKKFTTEQLEAFNHQFESSNFTARELDLELQKDVARVILTQVGSGPQETNESLIDAKTGLPKE ?
Response: 770 (263) mg/L
